- protocol: Cytotoxicity against human CEM cells assessed as reduction in cell viability incubated for 5 days by Cell-titer 96 aqueous one solution cell proliferation assay
- Assay type: cell-based, CCRF-CEM
- measurement_context: CEM cells (CCRF-CEM)
parameter_measured: CC50 at 120 h (µM)
One number for each entry, in µM.

Q: Please give the measured CC50 at 120 h for this compound: CCOC(=O)CCc1ccccc1OP(=O)(OC[C@H]1O[C@@H](n2cnc3c(N)nc(N)nc32)[C@](C)(O)[C@@H]1O)Oc1ccccc1CCC(=O)OCC
Ans: 25

====

- System: PBMC
- protocol: Cytotoxicity against human PBMC assessed as reduction in cell viability incubated for 5 days by Cell-titer 96 aqueous one solution cell proliferation assay
- Type: cell-based
- measurement_context: pbmc, 120 h
Provide the reported CC50 of each item.

Study these solved cases before continuing.
1) COc1nc(N)nc2c1ncn2[C@@H]1O[C@H](COP(=O)(N[C@@H](C)C(=O)OCC(C)(C)C)Oc2cccc3ccccc23)[C@@H](O)[C@@]1(C)O (stereo partly drawn) [BMS-986094]    4.7 µM
2) CCOC(=O)[C@H](C)N[P@@](=O)(OC[C@H]1O[C@@H](n2cnc3c(N)nc(N)nc32)[C@](C)(O)[C@H]1O)Oc1ccccc1CCC(=O)OC(C)C    > 100 µM

Q: Please give the measured CC50 for this molecule: CCOC(=O)CCc1ccccc1OP(=O)(N[C@@H](C)C(=O)OCC)OC[C@H]1O[C@@H](n2cnc3c(N)nc(N)nc32)[C@]2(C)OC(=O)O[C@@H]12 (stereo partly drawn)
Ans: > 100 µM
